Test: Selectivity index, ratio of GI50 for human A549 cells to MIC for Mycobacterium tuberculosis H37Ra ATCC 25177 at dormant stage
Format: toxicity, cell-based
Details: read-out: Selectivity Index

TEST_SMILES	selectivity ratio
CO[C@H]1/C=C/O[C@@]2(C)Oc3c(C)c(O)c4c(O)c(c(/C=N/N5CCN(C)CC5)c(O)c4c3C2=O)NC(=O)/C(C)=C\C=C\[C@H](C)[C@H](O)[C@@H](C)[C@@H](O)[C@@H](C)[C@H](OC(C)=O)[C@@H]1C	2500
Cc1cccc2cc(/C=C3\SC(=S)N(CC(=O)O)C3=O)c(Cl)nc12	5
Cc1cccc2cc(/C=C3\SC(=S)NC3=O)c(Cl)nc12	7.8
COc1ccc2nc(Cl)c(/C=C3\SC(=S)NC3=O)cc2c1	20.8
O=C1NC(=S)S/C1=C\c1cc2cc(Cl)ccc2nc1Cl	15.6
O=C1NC(=S)S/C1=C\c1cc2cc(F)ccc2nc1Cl	5.6
CCOc1ccc2nc(Cl)c(/C=C3\SC(=S)NC3=O)cc2c1	28.6
